molecular target: catalytic domain of stromelysin (Homo sapiens, UniProt P08254); construct: initiating methionine (N); made in house; host or cells: E. coli BL21(DE3)/pLysS, pET3d; experiment: NMR binding (2D 15N/1H HSQC) to the catalytic domain of stromelysin
Sequence (P08254 100-273): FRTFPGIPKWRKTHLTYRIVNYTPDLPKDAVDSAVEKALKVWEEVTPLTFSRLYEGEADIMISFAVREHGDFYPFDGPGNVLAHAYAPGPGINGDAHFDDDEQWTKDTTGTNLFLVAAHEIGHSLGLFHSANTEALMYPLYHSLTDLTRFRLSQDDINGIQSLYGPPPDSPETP
reported-property: Kd (µM)
Unit µM implied. Number only.

**Q:** Endpoint output: Kd of c1ccc(-c2ccncc2)cc1 . Value?
**A:** 200

###

reported-property: Ki
Write your answer as a measured quantity: the number, then the unit.

**Q:** Please tell me: Ki of c1ccc(-c2ccncc2)cc1 [Compound 7] , system catalytic domain of stromelysin (Homo sapiens, UniProt P08254)?
**A:** 320 µM
